Test system: MYB mRNA
Experimental Protocol: Splicing RT-qPCR assay, MYB canonical (CJ) and alternative (AJ) junction mRNA
Format: cell-based, human
Measurement Conditions: Homo sapiens, 24 h, A673 or K562 cells, 24 hours compound treatment, RT-qPCR; read-out: MYB AJ (AC50, increase in alternative junction mRNA)
Measure: AC50

Q: Fill in the recorded AC50 for this compound, with MYB mRNA as test system: CCn1cc2c(C3OCC(N)CO3)ccc(C(=O)Nc3cc(F)c4nc(C)cn4c3)c2n1 (centres unmarked) [Compound 455]
Ans: > 10000 nM

Q: Record Cc1cn2cc(NC(=O)c3ccc(N4CCNC(C)C4)c4cc(C)oc34)cc(F)c2n1 (centres unmarked) [Compound 190] : what is its AC50 with MYB mRNA?
Ans: < 100 nM

Q: Identify the measured AC50 of CCn1cc2c(N3CCC(CC)(N(C)C)CC3)ccc(C(=O)Nc3cc(F)c4nc(C)cn4c3)c2n1 [Compound 508] for MYB mRNA.
Ans: < 100 nM

Q: Please tell me: AC50 of Cc1cn2cc(NC(=O)c3cc(Cl)c(N4CCNCC4)c4cn(C)nc34)cc(F)c2n1 [Compound 528] , system MYB mRNA?
Ans: 100 to 1000 nM

Q: What is its AC50 for MYB mRNA? Entry: Cc1cn2cc(NC(=O)c3ccc(N4CC[C@@H](NC5(CF)CC5)C4)c4cn(C)nc34)cc(F)c2n1 [Compound 461]
Ans: 100 to 1000 nM

Q: Field: AC50 (MYB mRNA). Entry: CCn1cc2c(NC3CCNCC3)ccc(C(=O)Nc3cc(F)c4nc(C)cn4c3)c2n1 [Compound 476]
Ans: 1000 to 10000 nM

Q: Quick check: AC50 on MYB mRNA, item Cc1cn2cc(NC(=O)c3ccc(N4CCNCC4)c4cc(C)oc34)cc(F)c2n1 [Compound 142] ?
Ans: 100 to 1000 nM

Q: Look up AC50 with MYB mRNA for this compound: Cc1cn2cc(NC(=O)c3ccc(N4CCNCC4)c4cn(C5CCOC5)nc34)cc(F)c2n1 (centres unmarked) [Compound 356]
Ans: 100 to 1000 nM

* * *

Tested on: MYB mRNA
Experimental Protocol: Splicing RT-qPCR assay, MYB canonical (CJ) and alternative (AJ) junction mRNA
Format: cell-based, human
Measurement Conditions: Homo sapiens, 24 h, A673 or K562 cells, 24 hours compound treatment, RT-qPCR; read-out: MYB AJ (AC50, increase in alternative junction mRNA)
Measure: AC50

Q: Request the reported AC50 associated with Cc1cc(NC(=O)c2ccc(N3CCNCC3)c3cn(C)nc23)cc2c1nc(C)n2C [Compound 321]
Ans: > 10 µM

Q: Dear colleague, I am looking for the recorded AC50 of the following compound: Cc1cn2cc(NC(=O)c3ccc(N4CC[C@@H](NC5C6COCC65)C4)c4cn(C)nc34)cc(F)c2n1 (some centres unmarked) [Compound 633]
Ans: 0.1 to 1 µM

Q: Return reported AC50; argument: COc1nc(NC(=O)c2ccc(N3CCNCC3)c3cn(C)nc23)cn2cc(C)nc12 [Compound 323]
Ans: < 0.1 µM

Q: Need AC50 of Cc1nc2c(F)cc(NC(=O)c3ccc(N4CCNCC4)c4cn(C)nc34)cc2[nH]1 [Compound 509] , thanks.
Ans: 1 to 10 µM

Q: # get_value(readout='AC50', item= Cc1cn2cc(NC(=O)c3ccc(C4CC(C)(C)NC(C)(C)C4)c4cn(C)nc34)cc(F)c2n1 [Compound 212] )
Ans: 1 to 10 µM
